- assayDetails: HepG2 cell viability effects, profiling panel, calcein-AM fluorescence, 48 h, basal (AID 1164)
- conditions: higher = more signal
measuredMetric: z-score

# molecule, observedMeasurement
data = [
    ("CCCC=C(CCC)[C@@H](NC(=O)c1ccc(C(F)(F)F)cc1)c1ccccc1", -1.59),
    ("C#CCNC(/C=C/c1ccccc1)CO (stereo not drawn)", -0.624),
    ("CC(C)N1CC=CC23O[C@@H]4/C=C\\CCCOC(=O)C4[C@H]2C(=O)N(CCCCCO)[C@@H]3C1=O (stereo partly drawn)", 0.791),
    ("C[C@]1(C(=O)NCc2ccccc2)c2ccccc2C(=O)N(Cc2cc(C(F)(F)F)cc(C(F)(F)F)c2)[C@H]1c1ccc(CO)cc1", 0.292),
    ("O=C(NCC(F)(F)F)[C@@H]1c2ccccc2C(=O)N(Cc2ccccc2Cl)[C@H]1c1ccc(CO)cc1", 0.343),
    ("C=CC[C@]1(C(=O)NCC(O)CO)N=C(c2ccc(OCCCO)cc2)O[C@H]1c1ccccc1 (stereo partly drawn)", 0.417),
    ("CO[C@H]1COC(=O)[C@H](CCSC)NC(=O)CC=C[C@@H](C)COC(=O)[C@@H](OCc2ccccc2)C=C[C@@H]1C", 0.0042),
    ("COc1cccc([C@@H]2[C@@H](C)CC[C@H]3C(=O)N(C)[C@@H](C(C)C)C(=O)N23)c1", 0.445),
    ("N#Cc1ccc(NN2C(C(O)CCc3ccccc3)C=CC3C(=O)N(c4ccccc4)C(=O)C32)cc1 (stereo not drawn)", 1.18),
    ("C=CCC(OC(C)=O)[C@@H]1[C@@H](N(Cc2ccc(-c3ccccc3)cc2)C(=O)c2ccc(-c3ccccc3)cc2)c2cc(OCCCO)ccc2N1C(=O)Cc1ccc(OC)cc1 (stereo partly drawn)", 0.551),
    ("C[N+](C)(C)CCCC[C@@H]1NC(=O)[C@H]2C[C@@H](C(=O)NCc3ccc(F)cc3)[C@@H](c3cccc(OCCO)c3)N2C1=O", -0.676),
    ("CC(C)(C)OC(=O)CC[C@@]1(C(=O)NCc2ccccc2)N=C(c2ccc(OCCCO)cc2)O[C@@H]1c1ccccc1", -0.907),
    ("O=C1NC(=O)C2C1C=CC(C(O)C=Cc1ccc([N+](=O)[O-])cc1)N2Nc1ccccn1 (stereo not drawn)", 0.324),
]

----------
- system: Streptavidin (Streptomyces avidinii)
- assayDetails: streptavidin binders on small-molecule microarray, primary screen, artefact control for SMM compound annotation, biophysical, 635/667 nm fluorescence (AID 1147);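 further: signal reflects streptavidin binding to arrayed compounds as a control protein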
- conditions: streptavidin binding, higher = more signal
composite z-score reference
measuredMetric: composite z-score

# compound, system, observedMeasurement
measured = [
    ("O=C/C=C/c1ccc(/C=C/c2ccccc2)cc1", "Streptavidin (Streptomyces avidinii)", -0.0122),
    ("Cc1ccc(S[C@]2(C(=O)NC(C)C)CC(=O)N(C3Cc4ccccc4C3)[C@@H]2c2ccc(CO)cc2)cc1", "Streptavidin (Streptomyces avidinii)", -0.37),
    ("O=C(CS)NCCCCCNC(=O)[C@H]1C[C@H]2C(=O)N3CCC[C@H]3C(=O)N2[C@H]1c1ccc(O)cc1", "Streptavidin (Streptomyces avidinii)", -1.13),
    ("C=CCN1C(=O)[C@@]2(O[C@@H](CCn3cc([C@H](O)c4ccccc4)nn3)[C@H]([Si](C)(C)c3ccc(OC)cc3)[C@H]2C)c2cc(N3CCOC3=O)ccc21", "Streptavidin (Streptomyces avidinii)", -0.349),
    ("C=C(/C(=C/C[C@@H](OC(=O)c1ccncc1)c1ccc(CO)o1)c1cnc2ccccc2c1)C(C)C", "Streptavidin (Streptomyces avidinii)", 1.72),
    ("CCCC[C@H]1OB(O)C[C@H]2C1=C(COC)C[C@H]1C(=O)N(Cc3ccccc3)C(=O)[C@H]12", "Streptavidin (Streptomyces avidinii)", -0.098),
    ("COc1ccc(C(O)C2C=CC3C(=O)N(C)C(=O)C3N2N2CCCCC2)cc1OCc1ccccc1 (stereo not drawn)", "Streptavidin (Streptomyces avidinii)", 0.701),
    ("O=C1O[C@@H](c2ccccc2)[C@@H](c2ccccc2)N2[C@@H](c3ccc(O)cc3)[C@]3(C(=O)Nc4ccc(C#CC5(O)CCCCCC5)cc43)[C@@H](C(=O)Nc3nc4ccccc4s3)[C@H]12", "Streptavidin (Streptomyces avidinii)", 1.99),
]

----------
- Tested on: XIP peptide (Xip251-270)
- assayDetails: small-molecule binders of XIP peptide, primary screen, biochemical, small-molecule microarray, fluorescence 635/667 nm, 0.5 µg/mL protein (AID 1183)
- conditions: small-molecule microarray binding, fluorescence 635 nm; higher = more signal
composite z-score reference
measuredMetric: composite z-score

# compound, observedMeasurement
measured = [
    ("C[C@@H]1C=CCC(=O)OC[C@H]2O[C@@H](C=C[C@@H]2O)[C@H](C)C=CCC(=O)OC[C@H]2O[C@H]1C=C[C@@H]2O", 0.466),
    ("C=CC[C@]1(C(=O)OC)N=C(c2ccc(OCCCO)cc2)O[C@H]1c1ccccc1CN=[N+]=[N-]", -0.239),
    ("CC(C)N1CC=CC23O[C@@H]4/C=C\\CCCOC(=O)C4[C@H]2C(=O)N(CCO)[C@@H]3C1=O (some centres undefined)", 0.122),
    ("O=C1c2ccccc2[C@](Cc2ccccc2I)(C(=O)NCC(F)(F)F)[C@H](c2ccc(CO)cc2)N1Cc1ccccc1C(F)(F)F", 0.188),
]

----------
- assayDetails: basal 3T3-L1 adipocyte mitochondrial potential changes, profiling panel, cell-based, JC-1 fluorescence, 3T3-L1 adipocytes, 24 h, 100 nL compound (AID 1168)
- conditions: JC-1 mitochondrial fluorescence, higher = more signal, called active from +8 up or from −8 down
Criterion: z-score meeting or surpassing 0.6. Met: yes (1). Not met: no (0).

# compoundString, groupLabel
data = [
    ("Cc1ccc(S[C@]2(C(=O)NCCCN(C)C)CC(=O)N(Cc3ccccc3)[C@@H]2c2ccc(CO)cc2I)cc1", "no (0)"),
    ("CCOC(=O)C1=CC[C@@H](c2ccc(-c3ccc(OCc4ccccc4)cc3)c(OC)c2)N(S(=O)(=O)c2ccc(C)cc2)[C@H]1c1ccccc1", "no (0)"),
    ("CO[C@H]1O[C@H](CO)[C@@H](OC(=O)Nc2ccccc2)[C@H](OC(=O)Nc2ccc3c(c2)OCO3)[C@@H]1OC(=O)Nc1ccc2c(c1)OCO2", "yes (1)"),
    ("O=C1C[C@@](C(=O)NCCN2CCOCC2)(c2ccc([N+](=O)[O-])cc2)[C@@H](c2ccc(CO)cc2)N1C1CCCCC1", "no (0)"),
    ("COCCCNC(=O)[C@@]1(Sc2ccc(C)cc2)CC(=O)N(Cc2cc(C(F)(F)F)cc(C(F)(F)F)c2)[C@@H]1c1ccc(CO)cc1I", "no (0)"),
    ("Cc1ccc(S(=O)(=O)c2cc3oc2CC[C@@H](CO)NC(=O)N(C)Cc2cn(nn2)C[C@H](Cc2ccccc2)NC3=O)cc1", "yes (1)"),
]

----------
composite z-score reference
- system: Torsin-1A (Homo sapiens) (UniProt O14656)
- Sequence (O14656 whole entry, looked up): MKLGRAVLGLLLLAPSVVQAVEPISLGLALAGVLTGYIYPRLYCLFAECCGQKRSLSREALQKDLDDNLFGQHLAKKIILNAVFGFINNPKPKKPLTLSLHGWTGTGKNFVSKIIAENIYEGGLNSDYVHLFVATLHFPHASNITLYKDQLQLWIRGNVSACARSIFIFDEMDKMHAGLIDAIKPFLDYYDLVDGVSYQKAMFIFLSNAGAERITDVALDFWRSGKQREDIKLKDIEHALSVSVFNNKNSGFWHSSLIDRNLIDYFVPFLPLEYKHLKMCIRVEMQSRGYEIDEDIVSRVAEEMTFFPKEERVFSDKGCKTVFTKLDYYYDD
- assayDetails: small-molecule binders of mutant TOR1A in lysate, primary screen, cell lysate, small-molecule microarray, COS7 lysate, 635/667 nm fluorescence (AID 1150);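 further: score pools 667 nm emission and signal to noise measuring lysate protein binding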
- conditions: COS7 hTOR1A mutant lysate, 635 nm fluorescence, higher = more signal
measuredMetric: composite z-score

# compound, system, observedMeasurement
rows = [
    ("C=CC[C@]1(C(=O)NCC(O)CO)N=C(c2ccc(OCCCO)cc2)O[C@H]1c1ccccc1 (some centres not stated)", "Torsin-1A (Homo sapiens) (UniProt O14656)", 3.09),
    ("COC(=O)[C@@]1(Cc2ccc(OC)cc2)[C@H]2c3cc(C(=O)N(C)C)n(CCc4ccc(OC)c(Br)c4)c3C[C@H]2CN1C(=O)c1ccccc1", "Torsin-1A (Homo sapiens) (UniProt O14656)", 0.733),
    ("C=C(C(=O)CC[C@H](OC(=O)c1ccccc1-c1ccccc1C(=O)O)c1ccc(CO)o1)C(C)C", "Torsin-1A (Homo sapiens) (UniProt O14656)", 0.669),
    ("N#Cc1ccc(NN2C(C(O)CCc3ccccc3)C=CC3C(=O)N(c4ccccc4)C(=O)C32)cc1 (configuration not stated)", "Torsin-1A (Homo sapiens) (UniProt O14656)", 0.985),
    ("CCCC=C(CCC)[C@@H](NC(=O)c1ccccc1)c1ccccc1", "Torsin-1A (Homo sapiens) (UniProt O14656)", -0.0692),
    ("CCC(=O)[C@]12O[C@@]3([C@@H]4C(=O)OCC[C@@H]41)N(CC)C(C)=C(C(=O)OC)[C@@H](c1ccccc1)N3C2=O", "Torsin-1A (Homo sapiens) (UniProt O14656)", -0.063),
    ("NC(=O)NCC#Cc1ccc2c(c1)[C@]1(C(=O)N2)[C@H](c2ccccc2OCCO)N2[C@H](c3ccccc3)[C@H](c3ccccc3)OC(=O)[C@H]2[C@@H]1C(=O)N1CCN(c2ncccn2)CC1", "Torsin-1A (Homo sapiens) (UniProt O14656)", 0.272),
]
